Assay: qHTS Assay for Lipid Storage Modulators (AID 1519)
Settings: Drosophila S3 cells, BODIPY lipid droplet/cell ratio, laser cytometry; measured here: cell count channel max response; cells loaded with oleic acid
Records with an inconclusive call do not appear.
Task for the reader: assign each of the following compounds its reported max response.
Answer shape: numeric part, then the unit.

Worked cases, max response given:
CN1C[C@H](CO)C=C2c3cccc4[nH]cc(c34)C[C@@H]21 | -6.66%
C=C[C@]12CN(C)[C@H]3C1[C@@]1(C(=O)Nc4ccccc41)[C@H]1C[C@H]2[C@H]3CO1 | -11.8%

Each of the following entries comes with a recorded value; kindly state max response for each.
1. COc1cc2c(cc1OC)[C@]13CCN4CC5=CCOC6CC(=O)N2[C@@H]1[C@@H]6C5C[C@@H]43 (some centres undefined)
2. COC1C(O)C(OC2CC[C@]3(C=O)C4C(OC(C)=O)C[C@@]5(C)C(C6=CC(=O)OC6)CC[C@]5(O)C4CC[C@]3(O)C2)OC(C)C1OC(C)=O (some centres undefined)

1. -11.3%
2. 10%

Value source: PubChem BioAssay (NCATS)
